Give %Inh for every item shown.
System: HCK;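 note: KINOMEscan kinase panel screen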
Conditions: concentration: 1 μM, replicates: in singlicate; n = 1
Give bare numbers, in %.

Recorded results for 5 compounds are shown here.
response.value for CC(C)c1nc(-c2ccc(F)c(NS(=O)(=O)c3c(F)cccc3F)c2)c(-c2ccnc(Nc3ccc(N4CCOCC4)nc3)n2)s1 (field: %Inh) = 98.4

Short answer for c1ccc(Oc2ccc(Nc3ccnc4cc(-c5ccc(CN6CCCCC6)o5)ccc34)cc2)nc1 : %Inh was 79

Consider CC(C)c1nc(-c2cccc(NS(=O)(=O)c3c(F)cccc3F)c2)c(-c2ccnc(Nc3ccc(N4CCOCC4)nc3)n2)s1.Cl . Its measured %Inh is 98.3

The value of %Inh measured for the compound COc1cccc(NC(=O)NCCNc2ccnc(Nc3ccc(F)cc3)n2)c1 turned out to be 0

Per the record, CNc1nccc(-c2ccc3c(N)n[nH]c3c2)n1 has %Inh of 0

Respectfully, I request %Inh for each entry included below.
1. Cc1ccccc1CC(=O)N1CCc2cc(-c3cn(C)c4ncnc(N)c34)ccc21
2. Cc1cc(-c2c(-c3ccc(F)cc3)ncn2CCCN2CCOCC2)nc(N)n1
3. Cc1cccc(Nc2nc(N[C@H]3CCCC[C@H]3N)ncc2C(N)=O)c1.Cl
4. O=C(Nc1n[nH]c2nc(-c3ccccc3O)ccc12)C1CC1

[13, 27, 0, 0]
